Measured MIC, listed per entry for reference.
- System: Aspergillus niger
- PROCEDURE DETAILS: Antifungal activity against Aspergillus niger ATCC 16404 after 48 hrs by broth microdilution technique
- Type: functional
- RUN CONDITIONS: ATCC 16404, 48 h

// known answers, use as guide
COMPOUND: O=c1cc(-c2ccccc2)oc2ccccc12 [FLAVONE]
MIC: 800 µM
//
COMPOUND: COc1ccc(-c2cc(=O)c3c(OC)cc(OC)cc3o2)cc1 [TRIMETHYLAPIGENIN]
MIC: > 800 µM
//
COMPOUND: COc1ccc(/C=C/C(=O)c2c(O)cc(OC)cc2OC)cc1 [FLAVOKAWAIN A]
MIC: > 800 µM

[in] Requested read-out MIC, target or system Aspergillus niger, entry O=c1cc(-c2ccccc2-c2ccccc2-c2cc(=O)c3ccccc3o2)oc2ccccc12
[out] > 800 µM
